- Test system: P388;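 further: compound exposure lasted 48 hours before growth was measured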
- measurement description: cells
- Type: functional
- protocol conditions: Mus musculus
The source made the active and inactive calls. No stated cut-off is given here; in the data, active = GI50 up to about 1.1 µM and inactive = higher.
Your response should consist of one outcome taken from true for active, false for inactive

> print(dat)
                  compound  group
1  C[C@H]1COC(c2ccccn2)=N1  false

Incoming: How did this test come out for CCNCCCCNCC ?
Outgoing: false

Incoming: How did this test come out for O=C1NC2C(=CC(O)C(O)C2O)c2cc3c(cc21)OCO3 (centres undefined) ?
Outgoing: true

Incoming: How did this test come out for NC(=O)c1[nH]nc(C2OC(CO)C(O)C2O)c1O (centres undefined) ?
Outgoing: true

Origin of the recorded values: ChEMBL document CHEMBL1201862
